Tested on: Human RSV-A (“Long” strain)
Experiment Description: RSV-A assay (CPE, ATPlite readout in Hep-2 cells)
Assay type: cell-based
Particulars: human respiratory syncytial virus, 120 h; Hep-2 cells, MOI 0.1, 5-day incubation, ATPlite; read-out: Human RSV-A (“Long” strain) EC50
pEC50: −log10 of the molar value.

[
  {
    "Molecule": "COc1cc(C(=O)NC[C@](O)(c2cc3c(c(-c4ccc(F)cc4)n2)OC[C@@]3(N)C(F)(F)F)C(F)(F)F)cc(F)c1OC1CC1",
    "pEC50": "< 6.70"
  },
  {
    "Molecule": "C[C@](O)(CNC(=O)c1ccc(OC2CC2)c(OC2CC2)c1)c1cc2c(c(-c3ccc(F)c(Cl)c3)n1)OC[C@@]2(N)C(F)(F)F",
    "pEC50": "> 6.70"
  },
  {
    "Molecule": "COc1cc(C(=O)NC[C@](C)(O)c2cc3c(c(-c4ccc(F)cc4)n2)OC[C@@]3(N)C(F)(F)F)ccc1OC1CC1",
    "pEC50": "> 6.70"
  },
  {
    "Molecule": "N[C@@]1(C(F)(F)F)COc2c1cc([C@@](O)(CNC(=O)c1cc(OC3CC3)c3nn(C4CC4)cc3c1)C1CC1)nc2-c1ccc(F)cc1 [Example 55c]",
    "pEC50": "> 6.70"
  },
  {
    "Molecule": "COc1cc(C(=O)NC[C@H](O)c2cc3c(c(-c4ccc(F)cc4)n2)OC[C@@]3(N)C(F)(F)F)ccc1OC1CC1",
    "pEC50": "< 6.70"
  },
  {
    "Molecule": "N[C@@]1(C(F)(F)F)COc2c1cc([C@@](O)(CNC(=O)c1cc(OC3CC3)c3ncccc3c1)C1COC1)nc2-c1ccc(F)cc1",
    "pEC50": "< 6.70"
  },
  {
    "Molecule": "COc1cc(C(=O)NC[C@](O)(c2cc3c(c(-c4ccc(F)cc4)n2)OC[C@]3(N)C(F)(F)F)C(F)(F)F)ccc1OCCO",
    "pEC50": "< 6.70"
  },
  {
    "Molecule": "N[C@@]1(C(F)(F)F)COc2c1cc([C@](O)(CO)CNC(=O)c1cc(OC3CC3)c3ncccc3c1)nc2-c1ccc(F)cc1",
    "pEC50": "< 6.70"
  },
  {
    "Molecule": "COc1cnc(C(=O)NC[C@](O)(c2cc3c(c(-c4ccc(F)cc4)n2)OC[C@@]3(N)C(F)(F)F)C(F)(F)F)cc1OC",
    "pEC50": "< 6.70"
  },
  {
    "Molecule": "COc1cc(C(=O)NCC(C)c2cc3c(c(-c4ccc(F)c(F)c4)n2)OC[C@@]3(N)C(F)(F)F)ccc1OC1CC1 (stereo partly shown)",
    "pEC50": "< 6.70"
  },
  {
    "Molecule": "COc1cc(C(=O)NC[C@](O)(c2cc3c(c(-c4ccc(F)cc4)n2)OC[C@@]3(NC(=O)COC(C)=O)C(F)(F)F)C(F)(F)F)ccc1OC1CC1",
    "pEC50": "> 6.70"
  },
  {
    "Molecule": "N[C@@]1(C(F)(F)F)COc2c1cc([C@@](O)(CNC(=O)c1cc(OC3CC3)c3nn(C4CC4)cc3c1)C1CC1)nc2-c1ccc(F)c(Cl)c1 [Example 55d]",
    "pEC50": "> 6.70"
  },
  {
    "Molecule": "COc1cc(C(=O)NC[C@](O)(c2cc3c(c(-c4ccc(F)c(Cl)c4)n2)OC[C@@]3(N)C(F)(F)F)C2CC2)ccc1OC1CC1",
    "pEC50": "> 6.70"
  },
  {
    "Molecule": "C[C@](O)(CNC(=O)c1cc(OC2CC2)c2ncccc2c1)c1cc2c(c(-c3ccc(F)c(Cl)c3)n1)OC[C@@]2(N)C(F)(F)F",
    "pEC50": "< 6.70"
  },
  {
    "Molecule": "COc1cc(F)c(C(=O)NC[C@](O)(c2cc3c(c(-c4ccc(F)cc4)n2)OC[C@@]3(N)C(F)(F)F)C(F)(F)F)cc1OC",
    "pEC50": "< 6.70"
  },
  {
    "Molecule": "Cn1cc2cc(C(=O)NC[C@](O)(c3cc4c(c(-c5ccc(F)cc5)n3)OC[C@@]4(N)C(F)(F)F)C3CC3)cc(F)c2n1",
    "pEC50": "> 6.70"
  },
  {
    "Molecule": "COC[C@](O)(CNC(=O)c1cc(OC2CC2)c2ncccc2c1)c1cc2c(c(-c3ccc(F)cc3)n1)OC[C@@]2(N)C(F)(F)F",
    "pEC50": "> 6.70"
  },
  {
    "Molecule": "COc1cc(C(=O)NC[C@](O)(c2cc3c(c(-c4ccc(F)cc4)n2)OC[C@@]3(N)C(F)(F)F)C2CC2)ccc1OC1CC1",
    "pEC50": "> 6.70"
  },
  {
    "Molecule": "COc1cc(C(=O)NC[C@](O)(c2cc3c(c(-c4ccc(F)cc4)n2)OC[C@@]3(N)C(F)(F)F)C(F)(F)F)ccc1C(F)(F)F",
    "pEC50": "< 6.70"
  },
  {
    "Molecule": "COc1cc(C(=O)NC[C@](C)(O)c2cc3c(c(-c4ccc(F)c(F)c4)n2)OC[C@@]3(N)C(F)(F)F)ccc1OC1CC1",
    "pEC50": "> 6.70"
  },
  {
    "Molecule": "Nc1nc2ccc(C(=O)NC[C@](O)(c3cc4c(c(-c5ccc(F)cc5)n3)OC[C@@]4(N)C(F)(F)F)C3CC3)cc2s1",
    "pEC50": "> 6.70"
  },
  {
    "Molecule": "COc1cc(C(=O)NC[C@](O)(c2cc3c(c(-c4ccc(F)cc4)n2)OC[C@@]3(N)C(F)(F)F)C(C)(C)C)ccc1OC1CC1",
    "pEC50": "< 6.70"
  },
  {
    "Molecule": "C[C@](O)(CNC(=O)c1ccc(OC2CC2)c(OC2CC2)c1)c1cc2c(c(-c3ccc(F)c(F)c3)n1)OC[C@@]2(N)C(F)(F)F",
    "pEC50": "> 6.70"
  },
  {
    "Molecule": "COc1cc(C(=O)NC[C@](O)(c2cc3c(c(-c4ccc(F)cc4)n2)OC[C@@]3(N)C(F)(F)F)C(F)(F)F)ccc1OCC(C)C",
    "pEC50": "< 6.70"
  },
  {
    "Molecule": "COc1cc(C(=O)NC[C@](O)(c2cc3c(c(-c4ccc(F)cc4)n2)OC[C@@]3(NC(=O)CO)C(F)(F)F)C(F)(F)F)ccc1OC1CC1",
    "pEC50": "> 6.70"
  }
]
